Test system: Rattus norvegicus
Experiment: In vivo inhibition of MAO-A in Sprague-Dawley rat assessed as 3,4-dihydroxyphenylacetic acid level in brain striatum at 100 umol/kg, sc after 1 hr by HPLC/EC analysis relative to control
Assay type: functional
Parameters: scale not given: the % may be the effect or the level left
Examples of compounds with documented Activity follow.
Measured metric: Activity

INSERT INTO assay_data (cpd_smiles, experimental_target, reported) VALUES
  ('O=c1oc2ccc([N+](=O)[O-])cc2cc1CN1CCCC1', 'Rattus norvegicus', '105%'),
  ('COc1ccc2oc(=O)c(CN3CCCC3)cc2c1', 'Rattus norvegicus', '65%'),
  ('O=c1oc2ccc(C(F)(F)F)cc2cc1CN1CCCC1', 'Rattus norvegicus', '77%'),
  ('CCCNCc1cc2ccccc2oc1=O', 'Rattus norvegicus', '70%'),
  ('O=c1oc2ccccc2cc1CN1CCCC1', 'Rattus norvegicus', '58%');
